- Test system: MDR1
- assay_explanation: in vitro
- condition_details: dog, MDCK-MDR1, pH 7.4, MDCK-MDR1: Papp B-A (10^−6, cm/s)
Exercise: for every item that follows, state its recorded Papp B→A at 120 min, 5 μM.
One number for each entry, in ×10⁻⁶ cm/s.

CN(c1cnc(-c2ccc(-c3ccn(C)c(=O)c3)cc2O)cn1)[C@H]1CC2CCC[C@@H](N2)[C@H]1F (single isomer, unassigned) [Compound 5E2]: 43

Look at each molecule and report its Papp B→A at 120 min, 5 μM.
1. COc1cc(-c2ccc(-c3cnc(N(C)[C@H]4C[C@@H]5CCC(N5)[C@H]4F)cn3)c(O)c2)cc(F)n1 (single isomer, unassigned) [Compound 44E2]
2. COc1cc(-c2ccc(-c3cnc(N(C4CC4)[C@H]4C[C@@H]5CCC(N5)[C@H]4F)cn3)c(O)c2)cc(F)n1 (single isomer, unassigned) [Compound 52E2]
3. CN(C)C(=O)c1cc2cc(O)c(-c3cnc(N(C)[C@H]4CC5CC[C@@H](N5)[C@H]4F)cn3)cc2o1 (single isomer, unassigned) [Compound 7E2]
4. CN(c1cnc(-c2ccc(-c3cnn(C)c3)cc2O)cn1)[C@@H]1[C@H](F)[C@H]2CCC(N2)[C@@H]1F (single isomer, unassigned) [Compound 4E2]

[9.1, 3.32, 59.9, 27.9]
